System: TK-10 renal
assay overview: NCI-60 one-dose screen, 48 h
condition notes: 10 µM unless noted
This is part of a sample that, as a whole, favours compounds with a hit. Of some 83,000 tested, about 20% had one in any assay. Activity calls are given as the source filed them. How the source made its calls: active means growth percent below 10; inactive means the rest.
Tick one outcome: TRUE = active, FALSE = inactive

Input: # outcome recorded in this test, key = `CCCCn1c(C)nc2ccc(Nc3nc(Cl)nc4nc[nH]c34)cc21`
Output: FALSE

Input: Assay outcome for `COc1ccc(C2=Nn3c(nnc3-c3ccc(Cl)cc3N)SC2)cc1` : what was it?
Output: FALSE

Input: Assay outcome for `CN1CCN(Cc2ccc(NC(=O)c3ccc(C#N)c(C#Cc4cnc(N)c5ncccc45)c3)cc2C(F)(F)F)CC1` : what was it?
Output: FALSE

Input: Which outcome was assigned to N#Cc1c(N)n(C2OC(CO)C(O)C2O)c2ncnc(N)c12 (stereo unspecified) in this test?
Output: TRUE

Input: Tell me the assay call for CCCCCCCCNC(C)C(O)c1ccc(SC(C)C)cc1 (stereo unspecified) please.
Output: TRUE

Input: Lab log entry: `COc1ccc2[nH]c(O)c(/C=c3/ccc4c(c3)N=C(c3ccc(F)cc3)N=4)c2c1` — outcome as called in the assay?
Output: FALSE

Input: Record lookup: outcome of this test for `CCOCC(O)(c1ccc(Cl)cc1)c1ccc(Cl)cc1` ?
Output: FALSE

Input: For this compound, state the assay outcome: `COc1ccc(NC(=O)/C=C/c2ccc(Cl)c(Cl)c2)cn1`
Output: FALSE

Input: Per the records of this test, what outcome belongs to `CCN1CCN(Cc2ccc(NC(=O)c3nc4ccc5[nH]ncc5c4c4c3CCCC4)cc2C(F)(F)F)CC1` ?
Output: TRUE

Input: What call does the record list for `CC(C)(C)c1ccc(Cn2c(-c3nonc3N)nc3ccccc32)cc1` ?
Output: FALSE

Input: Each compound tested received a call. Report the one for Cc1ccc(S(=O)(=O)NC(CCC(=O)Nc2ccc(Cl)cc2)C(=O)Nc2ccc(Cl)cc2)cc1 (stereo unspecified) .
Output: FALSE

Input: Assay result, entry `C/C(=N\NC(=S)N1CCCCC1)c1ccccn1` — outcome?
Output: FALSE

Input: Per the assay record, what outcome was assigned to CCCOC(=O)C1c2cc3c(cc2CC(C)C1C(=O)OCCC)OCO3 (stereo unspecified) ?
Output: FALSE

Input: What did the test return for `O=c1cc(-c2ccc3c(c2)OCCO3)oc2cc(Cl)ccc12` ?
Output: TRUE

Input: Hi, sorry to bother you, what did the test record for O=C1CC2(O)CSc3nc(=O)cc(n32)N1 (stereo unspecified) ?
Output: FALSE

Input: Call for entry `COc1c(C(=O)/C=C/c2ccc(C)o2)c(O)cc2occc12` :
Output: FALSE

Input: Lab log entry: `Cc1cc(C)c(C#N)c(SCC(=O)c2sc3c(C#N)c(C)cc(C)[n+]3c2[O-])n1` — outcome as called in the assay?
Output: FALSE

Input: For `Cc1c(C)c(C)c([N+](=O)[O-])c([N+](=O)[O-])c1C` , which call appears in the assay record?
Output: FALSE

Input: Record lookup: outcome of this test for `COc1ccc(/C(=C\c2ccc3c(c2)OCO3)C(=O)Nc2nc3ccc(F)cc3s2)cc1OC` ?
Output: FALSE

Input: Hey, what did the test say about `O=C1/C(=C\c2cccn2Cc2ccc(Cl)cc2)c2ccccc2N1c1c(Cl)cccc1Cl` ?
Output: FALSE

Input: Outcome? `Oc1c(-c2cc(C(F)(F)F)[nH]n2)cc(Cl)c(OCc2ccc(Cl)cc2)c1-c1ccc(Cl)c(C(F)(F)F)c1`
Output: TRUE

* * *

Provide the reported growth of each item.
Tested on: SK-MEL-2 melanoma
assay overview: NCI-60 one-dose screen, 48 h (100 = growth as untreated, 0 = no growth, -100 = all killed)
condition notes: 10 µM unless noted
About 83,000 compounds went through this panel and 20% of them were active in at least one assay; those are over-represented in the sample as a whole.
Give the number; % is assumed, so skip it.

Input: # get_value(readout='growth', item= `O=C(/C=C/c1cc([N+](=O)[O-])ccc1Cl)c1ccccc1` )
Output: 107

Input: Entry `CCCCCCCCCCCCCCCCCC1=NC(C)(C)CN1C(C)(C)CO` has what growth?
Output: -69

Input: # get_value(readout='growth', item= CCN(CC)CCC(CNc1ccnc2cc(Cl)ccc12)c1ccc(O)cc1 (centres undefined) )
Output: 119

Input: Please look up its growth: COc1ccc(C2C3CCc4ccccc4C3=NN2C(=O)c2cc(OC)c(OC)c(OC)c2)cc1O (centres undefined)
Output: 75.4

Input: State the recorded growth for this entry: `COc1ccc(/C=c2\c(=O)n(-c3ccccc3)c3nn4c(=O)c(=O)[nH]nc4n23)cc1`
Output: 109

Input: Give the measured growth of COc1cc(C2=NOC(c3cc(OC)c(OC)c(OC)c3)C2)ccc1OCCCCOc1cc2c(cc1OC)C(=O)N1CCC[C@H]1C=N2 (some centres undefined) .
Output: 1.46

Input: Recorded growth of CCCN(CCC)CC(O)COc1ccccc1C(=O)Nc1ccccc1 (centres undefined) , please.
Output: 58

Input: Would you mind telling me what growth value was observed for `CCCCCCCCCCCC1=NC(C)(C)CN1C(C)(C)CO` ?
Output: 49.4

Input: # input molecule: `CN1CCN(c2ccc(N3Cc4ccccc4OC4=C3C(=O)c3c(O)ccc(O)c3C4=O)cn2)CC1` ; wanted: its growth
Output: -36.8

Input: Dear colleague, I am looking for the recorded growth of the following molecule: CCOC(C)(c1ccc(Cl)cc1)C1CCNCC1 (centres undefined)
Output: 106

Input: Fill in: growth of `COc1c(B(O)O)cccc1-c1nc2c(F)cc3n[nH]c(C)c3c2c2c1CCCC2` is ___
Output: -10.3

Input: // growth lookup, key: `CN1CCN(Cc2ccc(NC(=O)c3ccc(C#N)c(C#Cc4cnc(N)c5ncccc45)c3)cc2C(F)(F)F)CC1`
Output: 72.4

Input: If you can, please state the reported growth value of `O=C(Cn1nncc1CN1C(=O)CSC1=O)Nc1ccc(F)cc1` .
Output: 101

Input: Given the entry `CC[C@H](Nc1nc(C)nc(N)c1C#N)c1nc2cccc(NCc3ccc(C(=O)NO)cc3)c2c(=O)n1-c1ccccc1` , report its measured growth.
Output: 67.2

Input: growth lookup needed for `CN=C1C=C/C(=N/N=c2/ccn(O)cc2C)C=C1C` , thanks.
Output: 97.6

Input: Dear colleague, I am looking for the recorded growth of the following molecule: `C#CC[C@@H]1C[C@]2(C)[C@H]3CC=C4[C@H]5[C@@H](C)[C@H](C)CC[C@]5(C(=O)NCCCN5CCN(CCCN)CC5)CC[C@@]4(C)[C@]3(C)CC[C@H]2C(C)(C)[C@H]1OC(C)=O`
Output: -57.3

Input: Requested field: growth. Item: CC1=NC(c2ccc(Cl)cc2)C2=C(N1)/C(=C/c1ccc(Cl)cc1)CCC2 (centres undefined)
Output: 98.4

Input: Look up growth for this molecule: `Cc1c(-c2ccc(-c3ccccc3F)cc2)nc2ccc(F)cc2c1C(=O)O`
Output: 101

Input: Requested read-out: growth. Entry: O=C(O)C1[S][Sb]([CH](C(=O)O)[CH](C(=O)O)[Sb]2[S]C(C(=O)O)C(C(=O)O)[S]2)[S]C1C(=O)O (centres undefined)
Output: 64.7

* * *

Tested on: NCI-H522 lung
assay overview: NCI-60 one-dose screen, 48 h
condition notes: 10 µM unless noted
Compounds without any hit were thinned out: in the full panel of roughly 83,000, 20% have a hit. Active and inactive are the calls of the source. The calls were made as follows: active = growth percent below 10; inactive = the rest.
Select the correct class. Options are t (active), f (inactive) and nothing else.

Input: Please share the test call associated with `CN1CCN(Cc2ccc(NC(=O)c3cncc(C#Cc4ncc5ccccn45)c3)cc2C(F)(F)F)CC1` .
Output: f

Input: Outcome? O=C1c2ccccc2C2N1CCC1CCc3ccccc3N12 (centres undefined)
Output: f

Input: Recorded test call requested for `COc1ccc(-c2n[nH]nc2-c2cc(OC)c3c(c2)OCO3)cc1`
Output: t

Input: Which outcome did this test record for the compound `C#CC[C@@H]1C[C@]2(C)[C@H]3CC=C4[C@H]5[C@@H](C)[C@H](C)CC[C@]5(C(=O)NCCCCN)CC[C@@]4(C)[C@]3(C)CC[C@H]2C(C)(C)[C@H]1OC(C)=O` ?
Output: f

Input: Per the records of this test, what outcome belongs to C#CC[C@@H]1C[C@]2(C)[C@H]3CC[C@@H]4[C@H]5C(C(=C)C)CC[C@]5(C(=O)NCCCCN)CC[C@@]4(C)[C@]3(C)CC[C@H]2C(C)(C)[C@H]1OC(C)=O (some centres undefined) ?
Output: t

Input: Any idea what this test logged for `CC(=O)c1cccc(Nc2ncnc3ccc(NC(=O)c4ccco4)cc23)c1` ?
Output: f

Input: What was the test verdict on COc1ccc2c(c1)CCCC21C(=O)Nc2c(Cl)cccc21 (centres undefined) ?
Output: f

Input: Hello, I am checking results. What call was entered for `Cc1nc2ccc(Nc3nc(NCCN4CCOCC4)nc(Nc4ccc(F)cc4)n3)cc2n1Cc1ccccc1` ?
Output: f

Input: Lab log entry: CCN(CC)CCCC(C)N/C(c1cccc(OC)c1)=c1\c(=O)[nH]n(-c2c3ccccc3nc3ccccc23)c(=O)\c1=C(/NC(C)CCCN(CC)CC)c1cccc(OC)c1 (centres undefined) — outcome as called in the assay?
Output: t

Input: Recorded test outcome, item COc1ccc(C(=O)C(C#N)c2cc(OC)c(OC)c(OC)c2)cc1 (centres undefined)
Output: f

Input: Per the records of this test, what outcome belongs to `CCOC(=O)c1ccc(N(CCC(=O)O)C(C)=O)cc1` ?
Output: f

Input: Test call, this compound: CC(COC(=O)c1ccccc1)N1CC2CCC(C1)O2 (centres undefined)
Output: f

Input: Per the records of this test, what outcome belongs to CC(CN1CCN(CCOCCO)CC1)CN1c2ccccc2Sc2ccc(Cl)cc21 (centres undefined) ?
Output: f

Input: Give the logged outcome of this assay for the following compound: `CCCCOc1ncnc2nc[nH]c12`
Output: f

Input: Tell me the recorded outcome of this test for `CC(C)[C@H](CN)NC[C@H](C)NS(=O)(=O)c1ccc(C(C)(C)C)cc1` .
Output: f

Input: Lab log entry: `N=c1n(Cc2ccccc2)c(N)cc(=O)n1Cc1ccccc1` — outcome as called in the assay?
Output: f

Input: // outcome(item) with item = `COc1ccc([C@@H]2[C@@H](Cl)C(=O)N2c2cc(OC)c(OC)c(OC)c2)cc1C`
Output: f

Input: Entry `C=CCn1c(SCC(=O)Nc2ccc(C(=O)/C=C/c3ccc(Cl)cc3)cc2)nnc1-c1ccc(Cl)cc1` : call = ?
Output: f

Input: Please indicate how the test categorized `Cc1cc(C)c2c(n1)sc1c(Nc3ccc(O)cc3)ncnc12` .
Output: f
